Taken from patent US11547697B2.

- target-of-assay: p110β/p85α (Homo sapiens (Human))
- Sequence (P42338 whole entry): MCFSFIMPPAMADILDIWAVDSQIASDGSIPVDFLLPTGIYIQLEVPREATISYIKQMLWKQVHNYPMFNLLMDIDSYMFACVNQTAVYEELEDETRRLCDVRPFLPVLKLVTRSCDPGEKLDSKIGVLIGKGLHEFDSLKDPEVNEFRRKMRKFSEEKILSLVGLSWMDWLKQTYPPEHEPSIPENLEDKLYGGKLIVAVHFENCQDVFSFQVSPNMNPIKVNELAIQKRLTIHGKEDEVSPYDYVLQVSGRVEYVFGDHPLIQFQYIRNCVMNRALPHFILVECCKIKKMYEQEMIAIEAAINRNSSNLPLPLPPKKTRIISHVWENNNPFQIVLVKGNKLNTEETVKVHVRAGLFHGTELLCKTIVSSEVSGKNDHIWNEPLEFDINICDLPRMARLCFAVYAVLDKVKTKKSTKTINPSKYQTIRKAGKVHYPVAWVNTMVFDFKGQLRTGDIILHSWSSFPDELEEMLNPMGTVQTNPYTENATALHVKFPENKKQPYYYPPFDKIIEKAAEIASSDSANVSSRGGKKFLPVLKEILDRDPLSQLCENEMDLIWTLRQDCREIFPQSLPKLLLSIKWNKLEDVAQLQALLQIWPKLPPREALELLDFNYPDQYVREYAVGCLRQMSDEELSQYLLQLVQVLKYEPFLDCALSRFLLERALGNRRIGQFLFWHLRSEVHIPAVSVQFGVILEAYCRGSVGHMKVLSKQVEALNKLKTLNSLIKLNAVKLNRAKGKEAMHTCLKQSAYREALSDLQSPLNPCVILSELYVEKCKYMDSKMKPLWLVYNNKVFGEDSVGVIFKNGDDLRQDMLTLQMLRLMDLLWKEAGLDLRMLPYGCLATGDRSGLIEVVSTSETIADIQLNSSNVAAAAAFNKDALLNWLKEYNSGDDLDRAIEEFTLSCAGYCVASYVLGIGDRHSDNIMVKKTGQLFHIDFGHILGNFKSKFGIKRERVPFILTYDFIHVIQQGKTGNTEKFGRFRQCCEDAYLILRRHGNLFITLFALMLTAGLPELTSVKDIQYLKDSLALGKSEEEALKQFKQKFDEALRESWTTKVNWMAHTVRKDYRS
- Sequence (P27986 whole entry partner): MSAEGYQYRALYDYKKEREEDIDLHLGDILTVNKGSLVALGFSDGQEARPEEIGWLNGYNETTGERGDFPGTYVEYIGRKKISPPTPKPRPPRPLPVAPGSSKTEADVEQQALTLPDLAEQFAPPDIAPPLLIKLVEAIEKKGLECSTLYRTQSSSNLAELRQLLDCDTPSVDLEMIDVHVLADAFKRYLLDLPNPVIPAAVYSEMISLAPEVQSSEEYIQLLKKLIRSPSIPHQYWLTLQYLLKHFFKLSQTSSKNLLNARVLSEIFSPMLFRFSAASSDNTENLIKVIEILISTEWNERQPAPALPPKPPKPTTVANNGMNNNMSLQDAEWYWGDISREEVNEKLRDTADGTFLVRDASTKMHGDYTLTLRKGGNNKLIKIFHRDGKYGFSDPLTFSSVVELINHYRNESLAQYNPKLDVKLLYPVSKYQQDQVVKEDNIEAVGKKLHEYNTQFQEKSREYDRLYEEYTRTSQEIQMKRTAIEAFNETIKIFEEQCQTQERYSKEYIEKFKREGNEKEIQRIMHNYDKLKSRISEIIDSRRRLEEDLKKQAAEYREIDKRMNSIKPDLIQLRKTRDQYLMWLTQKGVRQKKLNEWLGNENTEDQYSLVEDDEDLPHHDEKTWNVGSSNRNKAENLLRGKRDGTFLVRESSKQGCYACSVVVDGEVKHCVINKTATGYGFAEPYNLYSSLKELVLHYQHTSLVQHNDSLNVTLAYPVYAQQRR
- procedure-details: PI 3-Kinase (human) HTRF assay, p110β/p85α
- Assay type: biochemical
- run-parameters: read-out: PI3K β IC50
reported-property: IC50

molecule: Nc1nc2cc(-c3ccc4ncnc(NC5CCOCC5)c4c3)ccc2o1 [compound 24]
reported-property: IC50
assay-result: < 1000 nM

molecule: Nc1nc2cc(-c3ccc4ncc(C(=O)N5CCN(CC6CC6)CC5)n4c3)ccc2o1 [compound 161]
reported-property: IC50
assay-result: < 10000 nM

molecule: Nc1nc2cc(-c3ccc4ncc(N5CCN(CCO)CC5)nc4c3)ccc2o1 [compound 100]
reported-property: IC50
assay-result: < 100 nM

molecule: CS(=O)(=O)CCN1CCC(Nc2cnc3ccc(-c4ccc5oc(N)nc5c4)cc3n2)CC1 [compound 181]
reported-property: IC50
assay-result: < 10000 nM

molecule: CN1CCCN(c2cnc3ccc(-c4ccc5oc(N)nc5c4)cc3n2)CC1 [compound 136]
reported-property: IC50
assay-result: < 1000 nM

molecule: CN1CCN(c2ncnc3ccc(-c4ccc5oc(N)nc5c4)cc23)CC1 [compound 23]
reported-property: IC50
assay-result: < 1000 nM

molecule: CC1CN(c2cnc3ccc(-c4ccc5oc(N)nc5c4)cc3n2)CCO1 (centres unmarked) [compound 173]
reported-property: IC50
assay-result: < 1000 nM

molecule: CS(=O)(=O)N1CCC(Nc2cnc3ccc(-c4ccc5oc(N)nc5c4)cc3n2)CC1 [compound 95]
reported-property: IC50
assay-result: < 10000 nM

molecule: Nc1ncc2cc(-c3ccc4nccc(-c5ccncc5)c4c3)ccc2n1 [compound 9]
reported-property: IC50
assay-result: < 10000 nM

molecule: Nc1nc2cc(-c3ccc4ncc(C(=O)N5CCCC5)n4c3)ccc2o1 [compound 186]
reported-property: IC50
assay-result: < 10000 nM

molecule: Nc1nc2cc(-c3ccc4ncc(NCCN5CCOCC5)nc4c3)ccc2o1 [compound 133]
reported-property: IC50
assay-result: < 1000 nM

molecule: Nc1nc2cc(-c3ccc4ncn(C5CCNCC5)c(=O)c4c3)ccc2o1 [compound 75]
reported-property: IC50
assay-result: < 10000 nM

molecule: Nc1nc2cc(-c3ccc4ncnc(OC5CCOCC5)c4c3)ccc2o1 [compound 47]
reported-property: IC50
assay-result: < 1000 nM

molecule: Nc1nc2cc(-c3ccc4ncc(=O)[nH]c4c3)ccc2o1 [compound 72]
reported-property: IC50
assay-result: < 1000 nM

molecule: Nc1nc2cc(-c3ccc4ncc(C(=O)N5CCOCC5)n4c3)ccc2s1 [compound 126]
reported-property: IC50
assay-result: < 10000 nM

molecule: CS(=O)(=O)CCN1CCN(c2cnc3ccc(-c4ccc5oc(N)nc5c4)cc3n2)CC1 [compound 90]
reported-property: IC50
assay-result: < 1000 nM

molecule: CC(C)N1CCN(c2cnc3ccc(-c4ccc5oc(N)nc5c4)cc3n2)CC1 [compound 84]
reported-property: IC50
assay-result: < 100 nM

molecule: CN(CCN1CCOCC1)c1cnc2ccc(-c3ccc4oc(N)nc4c3)cc2n1 [compound 166]
reported-property: IC50
assay-result: < 10000 nM

molecule: Nc1nc2cc(-c3ccc4ncc(C(=O)NC5CCOCC5)n4c3)ccc2o1 [compound 83]
reported-property: IC50
assay-result: < 10000 nM

molecule: Nc1nc2ccc(-c3ccc4nccc(-c5ccncc5)c4c3)cc2o1 [compound 4]
reported-property: IC50
assay-result: < 100 nM

molecule: Nc1noc2cc(-c3ccc4nccc(-c5ccncc5)c4c3)ccc12 [compound 16]
reported-property: IC50
assay-result: < 10000 nM

molecule: CN1CCN(c2cnc3ccc(-c4ccc5nc(N)sc5c4)cc3n2)CC1 [compound 115]
reported-property: IC50
assay-result: < 100 nM

molecule: Nc1nc2cc(-c3ccc4ncc(N5CCC(N6CCOCC6)CC5)nc4c3)ccc2o1 [compound 171]
reported-property: IC50
assay-result: < 1000 nM

molecule: CCN1CCC(n2cnc3ccc(-c4ccc5oc(N)nc5c4)cc3c2=O)CC1 [compound 73]
reported-property: IC50
assay-result: < 10000 nM

molecule: CS(=O)(=O)N1CCN(Cc2cc3nc(-c4ccc5oc(N)nc5c4)nc(N4CCOCC4)c3s2)CC1 [compound 129]
reported-property: IC50
assay-result: < 1000 nM

molecule: CC(=O)NC1CCN(C(=O)c2cnc3ccc(-c4ccc5oc(N)nc5c4)cn23)CC1 [compound 147]
reported-property: IC50
assay-result: < 10000 nM

molecule: Nc1nc2cccc(-c3ccc4nccc(-c5ccncc5)c4c3)c2s1 [compound 17]
reported-property: IC50
assay-result: < 1000 nM

molecule: CCNC(=O)c1cnc2ccc(-c3ccc4oc(N)nc4c3)cn12 [compound 188]
reported-property: IC50
assay-result: < 1000 nM

molecule: CN1CCN(c2ccnc3ccc(-c4ccc5oc(N)nc5c4)cc23)CC1 [compound 21]
reported-property: IC50
assay-result: < 10000 nM

molecule: CC(C)(C)N1CCN(c2cnc3ccc(-c4ccc5oc(N)nc5c4)cc3n2)CC1 [compound 182]
reported-property: IC50
assay-result: < 1000 nM

molecule: Nc1nc2cc(-c3ccc4ncc(N[C@H]5CC[C@H](O)CC5)nc4c3)ccc2o1 [compound 128]
reported-property: IC50
assay-result: < 10000 nM

molecule: NCC(=O)N1CCN(c2cnc3ccc(-c4ccc5oc(N)nc5c4)cc3n2)CC1 [compound 192]
reported-property: IC50
assay-result: < 1000 nM

molecule: Nc1nc2cc(-c3ccc4ncc(-c5ccncc5)n4c3)ccc2o1 [compound 6]
reported-property: IC50
assay-result: < 10000 nM

molecule: C[C@H]1CN(c2cnc3ccc(-c4ccc5oc(N)nc5c4)cc3n2)CCN1 [compound 178]
reported-property: IC50
assay-result: < 100 nM

molecule: Nc1nc2cc(-c3cn4c(-c5cn[nH]c5)cnc4cn3)ccc2o1 [compound 69]
reported-property: IC50
assay-result: < 10000 nM
